Assign pEC50 to each entry below.
- Tgt: hDP/Gqs5 (Homo sapiens, UniProt Q13258)
- Sequence (Q13258 1-359): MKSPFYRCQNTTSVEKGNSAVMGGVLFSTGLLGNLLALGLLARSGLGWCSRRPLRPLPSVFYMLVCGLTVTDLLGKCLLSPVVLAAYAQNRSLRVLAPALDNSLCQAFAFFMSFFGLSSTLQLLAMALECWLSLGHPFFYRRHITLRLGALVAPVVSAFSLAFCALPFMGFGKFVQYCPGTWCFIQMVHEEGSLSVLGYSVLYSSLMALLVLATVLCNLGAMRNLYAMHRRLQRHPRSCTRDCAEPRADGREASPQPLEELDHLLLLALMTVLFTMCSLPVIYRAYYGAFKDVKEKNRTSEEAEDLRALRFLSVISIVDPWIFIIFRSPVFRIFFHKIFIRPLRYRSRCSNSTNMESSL
- Assay Details: FLIPR calcium signal, DP
- Setup Conditions: NA listed after 'NA:', read-out: OTHER RECEPTORS Ca2+ EC50: DP
Give bare numbers, as −log10 of the molar value.

# Molecule, Test Value
records = [
    ("C#CC1=C(c2ccc(C(O)CCCCC)cc2)[C@@H](CCCc2ccc(C(=O)O)s2)CC1 (single isomer, unassigned) [compound 1]", 5.11),
]

Proceeding to the next molecule to report its pEC50.
Tell me its pEC50 given CCCCCC(O)c1ccc(C2=C(C#CCO)CC[C@@H]2CCCc2ccc(C(=O)O)s2)cc1 (stereo partly drawn) [compound 3] as the entry. 6.66

---

- Tgt: EP2 (Homo sapiens)
- Sequence (P43116 whole entry): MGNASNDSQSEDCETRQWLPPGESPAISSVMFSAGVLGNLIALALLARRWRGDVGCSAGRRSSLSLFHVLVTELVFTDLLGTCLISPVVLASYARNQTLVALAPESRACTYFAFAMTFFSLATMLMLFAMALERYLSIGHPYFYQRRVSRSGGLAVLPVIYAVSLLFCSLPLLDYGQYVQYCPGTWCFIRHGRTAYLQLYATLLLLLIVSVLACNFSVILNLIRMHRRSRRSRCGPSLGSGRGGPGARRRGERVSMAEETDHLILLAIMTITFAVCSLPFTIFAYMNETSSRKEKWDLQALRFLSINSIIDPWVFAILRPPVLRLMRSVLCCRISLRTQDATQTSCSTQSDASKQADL
- Assay Details: cAMP assay, HEK-EBNA cells expressing EP2
Endpoint Name: pEC50
Numbers only, as −log10 of the molar value.

# Compound, pEC50
records = [
    ("C#CC1=C(c2ccc(C(O)CCCCC)cc2)[C@@H](CCCc2ccc(C(=O)O)s2)CC1 (single isomer, unassigned) [compound 1]", 9.70),
    ("CCCCCC(O)c1ccc(C2=C(C#CCO)CC[C@@H]2CCCc2ccc(C(=O)O)s2)cc1 (stereo partly drawn) [compound 3]", 8.82),
]

Now consider a different compound.
Please list pEC50 recorded for the compound CCCCCC(O)c1ccc(C2=C(C#Cc3ccccc3)CC[C@@H]2CCCc2ccc(C(=O)O)s2)cc1 (stereo partly drawn) [compound 4] 6.85

---

- Tgt: hEP3A/Gqi5 (Homo sapiens, UniProt P43115)
- Sequence (P43115 whole entry): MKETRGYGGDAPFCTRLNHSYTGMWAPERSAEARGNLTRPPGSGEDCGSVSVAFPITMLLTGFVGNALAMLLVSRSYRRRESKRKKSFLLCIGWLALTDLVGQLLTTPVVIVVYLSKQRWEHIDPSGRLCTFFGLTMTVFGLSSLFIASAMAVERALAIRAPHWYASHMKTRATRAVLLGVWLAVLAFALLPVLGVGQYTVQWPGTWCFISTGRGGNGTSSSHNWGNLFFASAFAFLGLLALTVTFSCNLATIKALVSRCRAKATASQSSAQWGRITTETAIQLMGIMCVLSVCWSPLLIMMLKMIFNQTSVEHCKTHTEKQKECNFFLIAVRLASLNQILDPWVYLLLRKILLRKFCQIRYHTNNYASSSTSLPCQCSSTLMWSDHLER
- Assay Details: FLIPR calcium signal, EP3
- Setup Conditions: read-out: OTHER RECEPTORS Ca2+ EC50: EP3
Endpoint Name: pEC50
Answers are plain numbers, as −log10 of the molar value.

# Compound, Test Value
data = [
    ("CCCCCC(O)c1ccc(C2=C(C#Cc3ccccc3)CC[C@@H]2CCCc2ccc(C(=O)O)s2)cc1 (stereo partly shown)", 5.15),
    ("C#CC1=C(c2ccc(C(O)CCCCC)cc2)[C@@H](CCCc2ccc(C(=O)O)s2)CC1 (single isomer, unassigned) [compound 1]", 6.77),
    ("CCCCCC(O)c1ccc(C2=C(C#CCO)CC[C@@H]2CCCc2ccc(C(=O)O)s2)cc1 (stereo partly shown)", 5.13),
]

With those in mind, consider the next compound.
Kindly indicate its recorded pEC50. Item: C#CC1=C(c2ccc(C(O)CCCCC)cc2)[C@@H](CCCc2ccc(C(=O)O)s2)CC1 (single isomer, unassigned) [compound 2] 5.81
